- experiment_description: chemical genetic growth profiling, strain panel (AID 1159580);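 also: tested at 20 µM; growth read once vehicle control cultures reached saturation at 30 °C; 1 = growth at the plate median or of vehicle wells; lower values mean less growth of the strain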
- experimental_parameters: S. cerevisiae deletion strains, growth OD, locus YGR229C, strain SMI1, hits give low values
In all, about 5,500 compounds went through this assay and about 2,000 (36%) were called active. Inconclusive results (about 18%) are left out. Some of the results follow.

molecule	normalized growth
COc1ccc2c(c1C(C)C)CCC1C(C)(C)C(=O)CCC21C (centres undefined)	0.974
CN(C)c1ccc(/C=C2\C(=O)Nc3ccccc32)cc1	0.93
CC1O[C@@H](Oc2c(-c3ccc(O)c(O)c3)oc3cc(O)cc(O)c3c2=O)[C@H](O)[C@H](O)[C@H]1O (some centres undefined)	1
CCOC(=O)N/N=C\c1ccccc1OCC	1.01
CNC(=O)Oc1cccc2c1OC(C)(C)O2	1.03
CC(=O)OC1CN2CCC1CC2 (centres undefined)	1.01
CC(C)(C)NCC(O)c1cc(Cl)c(N)c(Cl)c1 (centres undefined)	1.01
CC1CCC2(OC1)OC1CC3C4CC[C@H]5C[C@@H](O)CC[C@]5(C)C4CC(=O)[C@]3(C)C1C2C (some centres undefined)	1
O=C(NC(Cc1ccccc1)C(=O)CCl)OCc1ccccc1 (centres undefined)	0.28
CC12CCC3c4ccc(OC(=O)c5ccccc5)cc4CCC3C1CCC2O (centres undefined)	1.02
CC(C)(C)NCC(O)c1cc(O)cc(O)c1 (centres undefined)	0.972
O=C(OC1Cc2c(O)cc(O)cc2OC1c1cc(=O)c(O)c2c(O)c(O)cc(C3Oc4cc(O)cc(O)c4CC3O)c2c1)c1cc(O)c(O)c(O)c1 (centres undefined)	0.0876
Cc1cc(C)c(/C=C2\C(=O)Nc3ccccc32)[nH]1	0.917
CN[C@@H]1C(O)[C@@H](O[C@@H]2[C@@H](O)[C@H](O[C@H]3OC(CN)=CC[C@H]3N)[C@@H](N)C[C@H]2N)OC[C@]1(C)O (some centres undefined)	1.05
CC(C)CC1NC(=O)NC1=O (centres undefined)	1.01
CC(C)(O)[C@@H]1Cc2cc3ccc(=O)oc3cc2O1	1.04
O=C(O[C@@H]1Cc2c(O)cc(O)cc2O[C@@H]1c1cc(O)c(=O)c2c(O)c(O)cc([C@H]3Oc4cc(O)cc(O)c4C[C@H]3OC(=O)c3cc(O)c(O)c(O)c3)c2c1)c1cc(O)c(O)c(O)c1	0.0949
NC(=O)OCC(COC(N)=O)c1ccccc1	0.991
O=C1C=C2C(=CCOC2O)O1 (centres undefined)	0.366

Data provenance: PubChem BioAssay AID1159580
